src = patent US5210193A

# Tested on: Morganella morganii CMC 84-37
# Protocol description: in vitro antibacterial MIC, agar plate dilution
# Format: cell-based
# Measurement setup: 18 hours, 35° C.
# Protocol: The in vitro antimicrobial spectrum of the compounds of ths invention were determined by the agar plate dilution method with Mueller-Hinton agar and an inoculum of each test organism of approximately 10^4 colony forming units delivered by the Steers replicating device. The minimal inhibitory concentration (MIC) in mcg/ml is defined as the lowest concentration of test compound that inhibited visible growth after 18 hours incubation at 35° C. […]
Form field: MIC (one value per entry).

- Molecule: "O=C(O)c1cn(C2CC2)c2cc(N3CCNC(c4ccsc4)C3)c(F)cc2c1=O (stereo not drawn)"
  Censoring operator: "<"
  MIC [µg/mL]: 0.12
- Molecule: "O=C(O)c1cn(C2CC2)c2cc(N3CCNC(c4ccccn4)C3)c(F)cc2c1=O (stereo not drawn)"
  Censoring operator: "="
  MIC [µg/mL]: 0.25
- Molecule: "CCn1cc(C(=O)O)c(=O)c2cc(F)c(N3CCN(C)C(CF)C3)c(F)c21 (single isomer, unassigned; (+))"
  Censoring operator: "="
  MIC [µg/mL]: 1
- Molecule: "CCn1cc(C(=O)O)c(=O)c2cc(F)c(N3CCNC(CF)C3)c(F)c21 (single isomer, unassigned; (+))"
  Censoring operator: "="
  MIC [µg/mL]: 0.12
- Molecule: "O=C(O)c1cn(C2CC2)c2cc(N3CCNC(c4ccco4)C3)c(F)cc2c1=O (stereo not drawn)"
  Censoring operator: "="
  MIC [µg/mL]: 0.06
- Molecule: "O=C(O)c1cn(C2CC2)c2cc(N3CCNC(C4CC4)C3)c(F)cc2c1=O (stereo not drawn)"
  Censoring operator: "="
  MIC [µg/mL]: 0.06

###

# Test system: Escherichia coli CMC 84-50
# Protocol description: in vitro antibacterial MIC, agar plate dilution
# Format: cell-based
# Measurement setup: Escherichia coli, CMC8450, 18 h, 35° C., read-out: MIC
Counter-ions that a name gives are not always drawn.
With a cut-off of 0.5 µg/mL, any MIC strictly below it is called true (1); any MIC meeting it or above is called false (0).

- Molecule: "O=C(O)c1cn(C2CC2)c2cc(N3CCNC(c4ccoc4)C3)c(F)cc2c1=O (stereo not shown)"
  Target or test system: "Escherichia coli CMC 84-50"
  Assigned class: "true (1)"
- Molecule: "CCn1cc(C(=O)O)c(=O)c2cc(F)c(N3CCN(C)C(c4ccn(C)n4)C3)cc21 (stereo not shown)"
  Target or test system: "Escherichia coli CMC 84-50"
  Assigned class: "false (0)"
- Molecule: "CCn1cc(C(=O)O)c(=O)c2cc(F)c(N3CCNC(c4ccoc4)C3)cc21 (stereo not shown)"
  Target or test system: "Escherichia coli CMC 84-50"
  Assigned class: "true (1)"
- Molecule: "O=C(O)c1cn(C2CC2)c2cc(N3CCNC(C4CC4)C3)c(F)cc2c1=O (stereo not shown)"
  Target or test system: "Escherichia coli CMC 84-50"
  Assigned class: "true (1)"
- Molecule: "CCn1cc(C(=O)O)c(=O)c2cc(F)c(N3CCNC(c4cccnc4)C3)cc21 (stereo not shown)"
  Target or test system: "Escherichia coli CMC 84-50"
  Assigned class: "false (0)"
- Molecule: "CCn1cc(C(=O)O)c(=O)c2cc(F)c(N3CCN(C)C(c4ccnn4C)C3)cc21 (stereo not shown)"
  Target or test system: "Escherichia coli CMC 84-50"
  Assigned class: "false (0)"
- Molecule: "O=C(O)c1cn(C2CC2)c2cc(N3CCNC(c4cc[nH]n4)C3)c(F)cc2c1=O (stereo not shown)"
  Target or test system: "Escherichia coli CMC 84-50"
  Assigned class: "true (1)"
- Molecule: "O=C(O)c1cn(C2CC2)c2cc(N3CCNC(CF)C3)c(F)cc2c1=O (stereo not shown)"
  Target or test system: "Escherichia coli CMC 84-50"
  Assigned class: "true (1)"
- Molecule: "O=C(O)c1cn(C2CC2)c2cc(N3CCNC(c4cc[nH]c4)C3)c(F)cc2c1=O (stereo not shown)"
  Target or test system: "Escherichia coli CMC 84-50"
  Assigned class: "true (1)"
- Molecule: "CN1CCN(c2c(F)c(F)c3c(=O)c(C(=O)O)cn(C4CC4)c3c2F)CC1"
  Target or test system: "Escherichia coli CMC 84-50"
  Assigned class: "true (1)"
- Molecule: "CCn1cc(C(=O)O)c(=O)c2cc(F)c(N3CCNC(c4ccncc4)C3)c(F)c21 (stereo not shown)"
  Target or test system: "Escherichia coli CMC 84-50"
  Assigned class: "false (0)"
- Molecule: "CN1CCN(c2cc3c(cc2F)c(=O)c(C(=O)O)cn3C2CC2)CC1C1CC1 (stereo not shown)"
  Target or test system: "Escherichia coli CMC 84-50"
  Assigned class: "true (1)"
- Molecule: "O=C(O)c1cn(C2CC2)c2cc(N3CCNC(c4ccco4)C3)c(F)cc2c1=O (stereo not shown)"
  Target or test system: "Escherichia coli CMC 84-50"
  Assigned class: "true (1)"
- Molecule: "CCn1cc(C(=O)O)c(=O)c2cc(F)c(N3CCNC(c4ccncc4)C3)cc21 (stereo not shown)"
  Target or test system: "Escherichia coli CMC 84-50"
  Assigned class: "false (0)"
- Molecule: "O=C(O)c1cn(C2CC2)c2cc(N3CCNC(c4ccsc4)C3)c(F)cc2c1=O (stereo not shown) [Example 98, monohydrochloride]"
  Target or test system: "Escherichia coli CMC 84-50"
  Assigned class: "true (1)"

###

Listed below: MIC values for each entry.
# Test system: Escherichia coli CMC 84-11
# Protocol description: in vitro antibacterial MIC, agar plate dilution
# Assay type: cell-based
# Measurement setup: Escherichia coli, CMC8411, 18 h, 35° C., read-out: MIC

- Molecule: "CCn1cc(C(=O)O)c(=O)c2cc(F)c(N3CCNC(c4sc5ccc(Cl)cc5c4C)C3)cc21 (stereo not shown)"
  Censoring operator: ">"
  MIC / µg/mL: 256
- Molecule: "CCn1cc(C(=O)O)c(=O)c2c(F)c(F)c(N3CCNC(C)C3)c(F)c21 (stereo not shown)"
  Censoring operator: "="
  MIC / µg/mL: 0.25
- Molecule: "CCn1cc(C(=O)O)c(=O)c2cc(F)c(N3CCNC(CNC)C3)cc21.Cl.Cl (stereo not shown)"
  Censoring operator: "="
  MIC / µg/mL: 8
- Molecule: "O=C(O)c1cn(C2CC2)c2cc(N3CCNC(c4ccccn4)C3)c(F)cc2c1=O (stereo not shown)"
  Censoring operator: "="
  MIC / µg/mL: 0.06

###

# Tested on: Serratia marcescens MOR 84-41
# Protocol description: in vitro antibacterial MIC, agar plate dilution
# Assay type: cell-based
# Measurement setup: Serratia marcescens, MOR8441, 18 h, 35° C., read-out: MIC
# Method: The in vitro antimicrobial spectrum of the compounds of ths invention were determined by the agar plate dilution method with Mueller-Hinton agar and an inoculum of each test organism of approximately 10^4 colony forming units delivered by the Steers replicating device. The minimal inhibitory concentration (MIC) in mcg/ml is defined as the lowest concentration of test compound that inhibited visible growth after 18 hours incubation at 35° C. […]
Where a name gives a salt, the structure may show the parent alone.
Entries annotated with measured MIC
Measured endpoint: MIC (µg/mL)

- Compound: "O=C(O)c1cn(C2CC2)c2cc(N3CCNC(c4ccsc4)C3)c(F)cc2c1=O (centres unmarked) [Example 98, monohydrochloride]"
  Target or test system: "Serratia marcescens MOR 84-41"
  Scale unit: "µg/mL"
  Censoring operator: "="
  Obs value: 0.25
- Compound: "CN1CCN(c2c(F)c(F)c3c(=O)c(C(=O)O)cn(C4CC4)c3c2F)CC1"
  Target or test system: "Serratia marcescens MOR 84-41"
  Scale unit: "µg/mL"
  Censoring operator: "="
  Obs value: 0.06
- Compound: "O=C(O)c1cn(C2CC2)c2cc(N3CCNC(CF)C3)c(F)cc2c1=O (centres unmarked)"
  Target or test system: "Serratia marcescens MOR 84-41"
  Scale unit: "µg/mL"
  Censoring operator: "="
  Obs value: 0.12
- Compound: "CCn1cc(C(=O)O)c(=O)c2cc(F)c(N3CCNC(c4ccoc4)C3)cc21 (centres unmarked)"
  Target or test system: "Serratia marcescens MOR 84-41"
  Scale unit: "µg/mL"
  Censoring operator: "="
  Obs value: 0.5
- Compound: "CCn1cc(C(=O)O)c(=O)c2cc(F)c(N3CCN(C)C(c4ccn(C)n4)C3)cc21 (centres unmarked)"
  Target or test system: "Serratia marcescens MOR 84-41"
  Scale unit: "µg/mL"
  Censoring operator: ">"
  Obs value: 16
- Compound: "CCn1cc(C(=O)O)c(=O)c2cc(F)c(N3CCNC(c4cccnc4)C3)cc21 (centres unmarked)"
  Target or test system: "Serratia marcescens MOR 84-41"
  Scale unit: "µg/mL"
  Censoring operator: "="
  Obs value: 4
- Compound: "CN1CCN(c2cc3c(cc2F)c(=O)c(C(=O)O)cn3C2CC2)CC1C1CC1 (centres unmarked)"
  Target or test system: "Serratia marcescens MOR 84-41"
  Scale unit: "µg/mL"
  Censoring operator: "="
  Obs value: 1
- Compound: "CCn1cc(C(=O)O)c(=O)c2cc(F)c(N3CCNC(c4ccncc4)C3)cc21 (centres unmarked)"
  Target or test system: "Serratia marcescens MOR 84-41"
  Scale unit: "µg/mL"
  Censoring operator: "="
  Obs value: 8
